# System: PKAC-alpha;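 also: KINOMEscan kinase panel screen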
# Construct: gene PRKACA
# Condition Description: concentration: 1 μM, replicates: in singlicate; n = 1
Recorded %Inh, one value per entry.

- Compound: "Cl.N#CCc1ccc(Nc2nccc(Nc3ccc(Oc4ccccc4)cc3)n2)cc1 [GW639905]"
  Test System: "PKAC-alpha"
  %Inh, %: 0
- Compound: "Nc1ncc(-c2ccc3nccc(-c4ccncc4)c3c2)cc1S(=O)(=O)N1CCCCC1 [GSK1693850]"
  Test System: "PKAC-alpha"
  %Inh, %: 1
- Compound: "CC(C)NCC(Cc1ccccc1)NC(=O)c1cc(Br)c(-c2ccnc3[nH]ccc23)s1.Cl.Cl (centres unmarked) [GSK1383281]"
  Test System: "PKAC-alpha"
  %Inh, %: 99.4
- Compound: "COc1cccc(NC(=O)NCCNc2ccnc(Nc3ccc(F)cc3)n2)c1 [GSK1379879]"
  Test System: "PKAC-alpha"
  %Inh, %: 0
- Compound: "Cc1ccc(NC(=O)c2ccc(Cl)c(Cl)c2)cc1-c1ccc(C(=O)Nc2ccncc2)cc1 [GSK1398460]"
  Test System: "PKAC-alpha"
  %Inh, %: 13

Reference source for all entries: paper PMC5540273
